- procedureSummary: Example 8 pilot study: peak plasma DMF level (GC/MS)
- Type: in vivo
- experimentalContext: human, topical or ocular, 4600 mg, Patient 7, 1 patch, 4 hours, average weekly dose 4.60 g
reportedProperty: Cmax (µg/mL)
# output: bare number, implied unit µg/mL

Query: Consider the compound CN(C)C=O [DMF, N,N'-dimethylformamide] and give its recorded Cmax.
Response: 100

====

- procedureSummary: Example 8 pilot study: peak plasma DMF level (GC/MS)
- Type: in vivo
- experimentalContext: human, topical or ocular, 6240 mg, Patient 8, two patches once weekly, 8 hours, average weekly dose 6.24 g
reportedProperty: Cmax (µg/mL)
Just the number please, in µg/mL, no unit attached.

Query: State its Cmax: CN(C)C=O [DMF, N,N'-dimethylformamide]
Response: 130
